Data origin: ChEMBL document CHEMBL1151959

experiment: Inhibition of HCV4a NS5B Cdelta21 RNA dependent RNA polymerase; set-up: species or system Hepatitis C virus subtype 4a
RESULT TYPE: IC50 (nM)
Numbers only; they are read as nM.

Could you please provide reported IC50 for O=C1c2cccc3c(NCCO)ccc(c23)C(=O)N1c1cccc(Br)c1 ? Thanks! 540

====

For each entry below, report its CC50 value.
assay: Cytotoxicity against human HuH7 cells by MTT assay; format: cell-based; details: Huh-7 cells
Numbers only; they are read as µM.

Could you please provide reported CC50 for CNCCNc1ccc2c3c(cccc13)C(=O)N(c1cccc(Br)c1)C2=O ? Thanks! 1.5

Could you please provide reported CC50 for O=C1c2cccc3c(NCCO)ccc(c23)C(=O)N1c1cccc(Br)c1 ? Thanks! 76

Could you please provide reported CC50 for O=C1c2cccc3c(NC4CCN(Cc5ccccc5)CC4)ccc(c23)C(=O)N1c1cccc(Br)c1 ? Thanks! 5.2

Could you please provide reported CC50 for O=C1c2cccc3c(NC4CCNCC4)ccc(c23)C(=O)N1c1cccc(Br)c1 ? Thanks! 3.5

====

test: Inhibition of HCV1b BK NS5B Cdelta21 RNA dependent RNA polymerase; parameters: species or system Hepatitis C virus (isolate BK)
pIC50: −log10 of the molar value.
Returns criterion met if the recorded pIC50 is greater than or equal to 6, and criterion not met otherwise.

Test whether the compound CC(C)N(c1cc(-c2ccccc2)sc1C(=O)O)C(=O)[C@H]1CC[C@H](C)CC1 records pIC50 of 6 or higher. criterion met

Test whether the compound OCCNc1ccc2c3c(cccc13)CN(c1cccc(Br)c1)C2 records pIC50 of 6 or higher. criterion not met

Test whether the compound O=C1c2cccc3c(NCCO)ccc(c23)C(=O)N1c1ccccc1 records pIC50 of 6 or higher. criterion not met

Test whether the compound O=C1c2cccc3c(NC4CCCCC4)ccc(c23)C(=O)N1c1cccc(Br)c1 records pIC50 of 6 or higher. criterion met

Test whether the compound CC(C)CNc1ccc2c3c(cccc13)C(=O)N(c1cccc(Br)c1)C2=O records pIC50 of 6 or higher. criterion met

Test whether the compound NS(=O)(=O)c1cccc(N2C(=O)c3cccc4c(NCCO)ccc(c34)C2=O)c1 records pIC50 of 6 or higher. criterion not met

Test whether the compound CN(CCO)c1ccc2c3c(cccc13)C(=O)N(c1cccc(Br)c1)C2=O records pIC50 of 6 or higher. criterion met

Test whether the compound COCCNc1ccc2c3c(cccc13)C(=O)N(c1cccc(Br)c1)C2=O records pIC50 of 6 or higher. criterion met
